All values here come from patent US20260258084A1.

Test system: human interleukin-23 receptor (recombinant human IL-23R-Fc chimera) (Homo sapiens, UniProt Q5VWK5)
Construct: Fc (IgG Fc fusion)
Protocol notes: Human ELISA IL23/IL23R (assay for specific human IL23R antagonists)
Format: binding
Experimental conditions: Table 10; read-out: Human ELISA IL23/IL23R IC50
Procedure: Antagonism of compounds for human interleukin-23 receptor antagonists, was determined by an ELISA assay. A 384-well plate was coated with 50 μl/well of human IL23 at a final concentration of […] and incubated overnight at 4° C. The wells were washed 3 times with 80 μl wash buffer and blocked with 80 μl blocking buffer for 60 minutes at room temperature and washed again. […] After the wells were washed, bound IL23R-Fc was detected with goat anti-hu-IgG1-HRP antibody. […]
Starred links: 1 amine or outer side, 2 acyl side, 3 side chain; linkers in the order of their positions; H or OH if unused. Positions of bridges follow the written chain, without caps; N, C: chain ends. Non-standard residues stand in square brackets, D forms with d. Residues, ends and D or L forms follow the SMILES beside them. *: point of attachment. X3 = CN(CCCCC(=O)N[C@@H](CS[*:2])C(=O)[*:1])[*:3]; X7 = O=C(CCC(=O)[*:3])N[C@@H](CC[*:2])C(=O)[*:1]; Trp(7-Me) = Cc1cccc2c(C[C@H](N)C(=O)O)c[nH]c12; X1 = O=C(CCCCN[*:3])N[C@@H](CS[*:2])C(=O)[*:1]; αMeLys(Me2) = CN(C)CCCC[C@](C)(N)C(=O)O; 2Nal = N[C@@H](Cc1ccc2ccccc2c1)C(=O)O; d2Nal = N[C@H](Cc1ccc2ccccc2c1)C(=O)O; AEF = NCCOc1ccc(C[C@H](N)C(=O)O)cc1; 3Pal = N[C@@H](Cc1cccnc1)C(=O)O; αMeL = CC(C)C[C@](C)(N)C(=O)O; Thp = NC1(C(=O)O)CCOCC1; Me2NCH2CH2 = CN(C)CC*; Aib = CC(C)(N)C(=O)O; Ahx = NCCCCCC(=O)O; Ava = NCCCCC(=O)O; Sar = CNCC(=O)O
Please provide measured pIC50 for the entries that follow.
Scale explanation: pIC50 corresponds to minus log10 of a concentration expressed in moles per litre.

Task: # query: pIC50 of entry CC(=O)NCCCC[C@@H]1NC(=O)[C@H](Cc2c[nH]c3c(C)cccc23)NC(=O)[C@H]([C@@H](C)O)NC(=O)[C@H](CC(N)=O)NC(=O)[C@@H]2CSSC[C@H](NC1=O)C(=O)N[C@@H](Cc1ccc(OCCN(C)C)cc1)C(=O)N[C@@H](Cc1ccc3ccccc3c1)C(=O)NC(C)(C)C(=O)N[C@H](C(=O)N[C@@H](CC(N)=O)C(=O)N[C@@H](Cc1c[nH]cn1)C(=O)N(C)CC(N)=O)CCC(=O)NCCCCC(=O)N2 [compound 45] ([Ava]CNT[Trp(7-Me)]K(Ac)CY(Me2NCH2CH2)[2Nal][Aib]ENH[Sar]-NH2; disulfide 2-7; lactam N-11)
Output: 9.49

Task: Need pIC50 of CC(=O)NCCCC[C@@H]1NC(=O)[C@H](Cc2c[nH]c3c(C)cccc23)NC(=O)[C@H]([C@@H](C)O)NC(=O)[C@H](CC(N)=O)NC(=O)[C@@H]2CSSC[C@H](NC1=O)C(=O)N[C@@H](Cc1ccc(OCCN(C)C)cc1)C(=O)N[C@@H](Cc1ccc3ccccc3c1)C(=O)N[C@@](C)(CC(C)C)C(=O)N[C@H](C(=O)N[C@@H](CC(N)=O)C(=O)N[C@@H](Cc1c[nH]cn1)C(N)=O)CCC(=O)NCCCCC(=O)N2 [compound 22] ([Ava]CNT[Trp(7-Me)]K(Ac)CY(Me2NCH2CH2)[2Nal][αMeL]ENH-NH2; disulfide 2-7; lactam N-11) , thanks.
Output: 9.31

Task: I would be grateful if you could share the reported pIC50 for CC(=O)NCCCC[C@@H]1NC(=O)[C@H](Cc2c[nH]c3c(C)cccc23)NC(=O)[C@@H](NC(C)=O)CCCCNC(=O)[C@@H]2CSSC[C@H](NC1=O)C(=O)N[C@@H](Cc1ccc(OCCN(C)C)cc1)C(=O)N[C@@H](Cc1ccc3ccccc3c1)C(=O)NC1(CCOCC1)C(=O)N[C@H](C(=O)N[C@@H](CC(N)=O)C(=O)N[C@@H](Cc1cccnc1)C(=O)N(C)CC(N)=O)CCCCN(C)CCCCN2C [compound 127] .
Output: 9.28

Task: Give its pIC50 value. Item: CC(=O)NCCCC[C@@H]1NC(=O)[C@H](Cc2c[nH]c3c(C)cccc23)NC(=O)[C@@H](NC(C)=O)CCCCNC(=O)[C@@H]2CCSC[C@H](NC1=O)C(=O)N[C@@H](Cc1ccc(OCCN(C)C)cc1)C(=O)N[C@H](Cc1ccc3ccccc3c1)C(=O)NC1(CCOCC1)C(=O)N[C@H](C(=O)N[C@@H](CC(N)=O)C(=O)N[C@@H](Cc1cccnc1)C(=O)N(C)CC(N)=O)CCCCNC(=O)CCC(=O)N2 [compound 122] (Ac-K[Trp(7-Me)]K(Ac)CY(Me2NCH2CH2)[d2Nal][Thp]KN[3Pal][Sar]-NH2; linker 1-4-8 via X7)
Output: 8.64

Task: pIC50 for CC(=O)NCCCC[C@@H]1NC(=O)[C@H](Cc2c[nH]c3ccccc23)NC(=O)[C@@H](NC(C)=O)CCCCNC(=O)[C@@H]2CSSC[C@H](NC1=O)C(=O)N[C@@H](Cc1ccc(OCCN(C)C)cc1)C(=O)N[C@H](Cc1ccc3ccccc3c1)C(=O)N[C@@](C)(CCCCN(C)C)C(=O)N[C@H](C(=O)N[C@@H](CC(N)=O)C(=O)N[C@@H](Cc1cccnc1)C(=O)N(C)CC(N)=O)CCC(=O)NCCCCC(=O)N2 [compound 59] (Ac-KWK(Ac)CY(Me2NCH2CH2)[d2Nal][αMeLys(Me2)]EN[3Pal][Sar]-NH2; linker 1-4-8 via X1) ?
Output: 9.62

Task: Please give the measured pIC50 for this molecule: COc1ccc(C[C@@H]2NC(=O)[C@@H]3CSSC[C@H](NC(=O)CCCCCNC(=O)CC[C@@H](C(=O)N[C@@H](CC(N)=O)C(=O)N[C@@H](CC(N)=O)C(N)=O)NC(=O)C(C)(C)NC(=O)[C@H](Cc4ccc5ccccc5c4)NC2=O)C(=O)N[C@@H](CC(N)=O)C(=O)N[C@@H]([C@@H](C)O)C(=O)N[C@@H](Cc2c[nH]c4ccccc24)C(=O)N[C@@H](CCC(N)=O)C(=O)N3)cc1 [compound 2] ([Ahx]CNTWQCY(Me)[2Nal][Aib]ENN-NH2; disulfide 2-7; lactam N-11)
Output: 9.22

Task: Query: pIC50; subject: CC(C)C[C@]1(C)NC(=O)[C@H](Cc2ccc3ccccc3c2)NC(=O)[C@H](Cc2ccc(OCCN(C)C)cc2)NC(=O)[C@@H]2CSSC[C@H](NC(=O)CCCCNC(=O)CC[C@@H](C(=O)N[C@@H](CC(N)=O)C(=O)N[C@@H](CC(N)=O)C(N)=O)NC1=O)C(=O)N[C@@H](CC(N)=O)C(=O)N[C@@H]([C@@H](C)O)C(=O)N[C@@H](Cc1c[nH]c3ccccc13)C(=O)N[C@@H](CCC(N)=O)C(=O)N2 [compound 27] ([Ava]CNTWQCY(Me2NCH2CH2)[2Nal][αMeL]ENN-NH2; disulfide 2-7; lactam N-11)
Output: 9.40

Task: GET /values?readout=pIC50&item= CC(=O)N[C@H]1CCCCNC(=O)[C@@H]2CSSC[C@H](NC(=O)[C@H](CCC(N)=O)NC(=O)[C@H](Cc3c[nH]c4ccccc34)NC1=O)C(=O)N[C@@H](Cc1ccc(OCCN)cc1)C(=O)N[C@@H](Cc1ccc3ccccc3c1)C(=O)NC1(CCOCC1)C(=O)N[C@H](C(=O)N[C@@H](C)C(=O)N[C@H](CC(C)C)C(N)=O)CCC(=O)N(C)CCCCC(=O)N2 [compound 34] (Ac-KWQC[AEF][2Nal][Thp]EA[dL]-NH2; linker 1-4-8 via X3)
Output: 9.24
